test-parameters: in ethyl acetate, 283.15 K
metric-name: solubility (mole fraction)
Answer field: number only, no words.

QUERY: Give its solubility (mole fraction) value. Item: O=c1cc(CO)occ1O
RESULT: 0.00105

* * *

test-parameters: in DMAc, 318.15 K
metric-name: solubility (mole fraction)
Field format: numeric only.

QUERY: I have this compound here, O=c1cc(CO)occ1O , and I need its recorded solubility (mole fraction).
RESULT: 0.228

* * *

test-parameters: in DMSO, 308.15 K
metric-name: solubility (mole fraction)

QUERY: Record request: solubility (mole fraction) value, item O=c1cc(CO)occ1O
RESULT: 0.268

* * *

test-parameters: in acetone, 278.15 K
metric-name: solubility (mole fraction)
The reply should be a number, written without any unit.

QUERY: Could you tell me which solubility (mole fraction) is on file for O=c1cc(CO)occ1O ?
RESULT: 0.00224

* * *

test-parameters: in 2-ethoxyethanol, 323.15 K
metric-name: solubility (mole fraction)

QUERY: Recorded solubility (mole fraction) for O=c1cc(CO)occ1O , please?
RESULT: 0.0435

* * *

test-parameters: in water, 298.15 K
metric-name: solubility (mole fraction)

QUERY: Query (compound): O=c1cc(CO)occ1O ; field requested: solubility (mole fraction)
RESULT: 0.00553

* * *

test-parameters: in NMP, 298.15 K
metric-name: solubility (mole fraction)
# answer = number (no unit)

QUERY: Requested read-out: solubility (mole fraction). Entry: O=c1cc(CO)occ1O
RESULT: 0.201

* * *

test-parameters: in 2-methoxyethanol, 298.15 K
metric-name: solubility (mole fraction)

QUERY: What value of measured solubility (mole fraction) is listed for O=c1cc(CO)occ1O ?
RESULT: 0.0331

* * *

test-parameters: in methanol, 293.15 K
metric-name: solubility (mole fraction)
When you answer, write just the number.

QUERY: # solubility (mole fraction) lookup, item O=c1cc(CO)occ1O
RESULT: 0.00891

* * *

test-parameters: in DMF, 323.15 K
metric-name: solubility (mole fraction)
// print number alone

QUERY: Given O=c1cc(CO)occ1O , state its recorded solubility (mole fraction).
RESULT: 0.193

* * *

test-parameters: in 2-methoxyethanol, 283.15 K
metric-name: solubility (mole fraction)
Would you mind answering with just the numeric figure?

QUERY: Which solubility (mole fraction) is listed for O=c1cc(CO)occ1O ?
RESULT: 0.0214

* * *

test-parameters: in ethyl acetate, 313.15 K
metric-name: solubility (mole fraction)
Just the number, please, no unit after it.

QUERY: Consider the molecule O=c1cc(CO)occ1O and give its measured solubility (mole fraction).
RESULT: 0.00338

* * *

test-parameters: in DMAc, 313.15 K
metric-name: solubility (mole fraction)
Please reply with the value in numeric form only.

QUERY: Form field: reported solubility (mole fraction) of O=c1cc(CO)occ1O
RESULT: 0.216

* * *

test-parameters: in 2-methoxyethanol, 303.15 K
metric-name: solubility (mole fraction)
Just the number.

QUERY: Could you tell me which solubility (mole fraction) is on file for O=c1cc(CO)occ1O ?
RESULT: 0.0377

* * *

test-parameters: in DMF, 318.15 K
metric-name: solubility (mole fraction)
// return just the number, without any unit appended

QUERY: # solubility (mole fraction) lookup, item O=c1cc(CO)occ1O
RESULT: 0.18

* * *

test-parameters: in water, 283.15 K
metric-name: solubility (mole fraction)
Hey, just send me the number, nothing else.

QUERY: Name the reported solubility (mole fraction) value associated with the compound O=c1cc(CO)occ1O
RESULT: 0.00276

From: BigSolDB 2.1
